- method-notes: drug combination growth inhibition, ovarian cancer – cell-based, oncology-focused library, rucaparib conditional, profiling panel (AID 1508598)
- condition-description: patient-derived ovarian cancer cells, CellTiter-Glo viability, 144 h; at 0.00488 µM; OCI-C5x cells; without rucaparib
Activity calls are given as the source filed them.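 How the source made its calls: active means normalized viability below 100% at a tested concentration; inactive means the rest.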
Returns: one label drawn from active, inactive

Take a look at these entries with their results.
O=C(Nc1cn[nH]c1-c1nc2ccc(CN3CCOCC3)cc2[nH]1)NC1CC1	inactive
Cc1ccc(C(=O)Nc2ccc(CN3CCN(C)CC3)c(C(F)(F)F)c2)cc1C#Cc1cnc2cccnn12	inactive
COc1cc2nccc(Oc3ccc(NC(=O)C4(C(=O)Nc5ccc(F)cc5)CC4)cc3)c2cc1OC	inactive

Task item: Record request — test call for `CNC(=O)c1cc(Oc2ccc(NC(=O)Nc3cc(C(C)(C)C)nn3-c3ccc4ncccc4c3)c(F)c2)ccn1`
Reply: inactive

Task item: Record request — test call for NC(=O)C1CCCc2c1[nH]c1ccc(Cl)cc21 (stereo not given)
Reply: inactive

Task item: Record request — test call for `CC1(COc2ccc3c(c2)ncn3-c2ccc3cccc(N4CCC(N)CC4)c3n2)COC1`
Reply: inactive

Task item: Record request — test call for `CCC[C@H](NC(=O)/C(C#N)=C/c1cccc(Br)n1)c1ccccc1`
Reply: inactive

Task item: Record request — test call for `NC(=O)Nc1cc(-c2cccc(F)c2)sc1C(=O)N[C@H]1CCCNC1`
Reply: active

Task item: Record request — test call for `Cc1cccc(Nc2nc(-c3ccncc3)cs2)c1`
Reply: inactive

Task item: Record request — test call for `Cn1c(=O)c(F)c(Nc2ccc(I)cc2F)c2c(=O)n(C[C@@H](O)CO)cnc21`
Reply: inactive
